- MEASURED ON: Endonuclease III-like protein 1 (Homo sapiens) (UniProt P78549)
- Sequence (whole entry): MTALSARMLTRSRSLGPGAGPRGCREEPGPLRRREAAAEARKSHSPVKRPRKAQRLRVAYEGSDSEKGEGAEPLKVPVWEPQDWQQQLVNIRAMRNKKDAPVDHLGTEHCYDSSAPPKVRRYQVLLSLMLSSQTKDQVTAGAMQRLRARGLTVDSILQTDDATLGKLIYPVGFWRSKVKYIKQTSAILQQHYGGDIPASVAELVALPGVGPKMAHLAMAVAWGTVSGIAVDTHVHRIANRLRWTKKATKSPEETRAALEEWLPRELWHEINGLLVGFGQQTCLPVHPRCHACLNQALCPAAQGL
- COND: Compound Concentration 10.0 uM, Hit No
- Description: Inhibition of NTHL1 by quantifying inhibition of NTHL1-mediated cleavage and dissociation of quenched duplex DNA oligonucleotides, measured as fluorescence at 594 nm.
// reported inhibition for each item listed

COMPOUND: COC(=O)c1cc2c(cn1)[nH]c1ccccc12
inhibition [%]: 2.22
//
COMPOUND: OC(CN1CCC(Cc2ccc(F)cc2)CC1)c1ccc(Cl)cc1 (centres undefined)
inhibition [%]: 8.82
//
COMPOUND: COc1ccc(Oc2cc(NCCC(F)(F)F)c3ncc(-c4ccc(C(=O)NC5CC5)c(C)c4)n3n2)c(F)c1F
inhibition [%]: -2
//
COMPOUND: CCn1c(=O)c(C)cn(Cc2nnc(-c3ccc(F)c(OC)c3F)s2)c1=O
inhibition [%]: -4.57
//
COMPOUND: Cc1nc(NC(=O)N2CCC[C@H]2C(N)=O)sc1-c1ccnc(C(C)(C)C(F)(F)F)c1
inhibition [%]: 12.6
//
COMPOUND: COc1ccc2cc(S(=O)(=O)N[C@H](CC(=O)N[C@H](Cc3ccc(CN4[C@H](C)CCC[C@@H]4C)cc3)C(=O)N(C)C(C)C)c3ccc4c(c3)OCO4)ccc2c1
inhibition [%]: 7.79
//
COMPOUND: CN(C)c1ncc2cc(-c3ccc(-c4ncccc4F)cc3Cl)c(=O)n(C[C@H]3OC[C@H](N)CO3)c2n1
inhibition [%]: -1.31
//
COMPOUND: COc1cc(C(=O)O)ncc1C#Cc1ccccc1NS(=O)(=O)c1cccc2c(N(C)C)ccnc12
inhibition [%]: -8.52
//
COMPOUND: C[N+]1(C)[C@@H]2C[C@@H](OC(=O)C(O)(c3cccs3)c3cccs3)C[C@H]1[C@@H]1O[C@@H]12
inhibition [%]: 7.05
//
COMPOUND: Cc1c(F)cccc1[C@H]1COC(N)=N1
inhibition [%]: 14.6
//
COMPOUND: O=C(NCc1ncc(C(F)(F)F)cc1Cl)c1ccc2c(c1)C1(CCS(=O)(=O)CC1)[C@@H](C1CC1)N2S(=O)(=O)c1ccc(F)cc1
inhibition [%]: -8.52
//
COMPOUND: COc1cc(C)c(Sc2cnc(NC(=O)c3ccc(CNC(C)C(C)(C)C)cc3)s2)cc1C(=O)N1CCN(C(C)=O)CC1 (centres undefined)
inhibition [%]: -3.4
//
COMPOUND: CS(=O)(=O)NC[C@H]1CC[C@H](Nc2nc3c(s2)CCSc2ccccc2-3)CC1
inhibition [%]: 34.9
//
COMPOUND: Nc1ncnc2c1ncn2[C@@H]1O[C@H](CO)[C@@H](O)[C@H]1O
inhibition [%]: 2.66

* * *

- MEASURED ON: Endonuclease III-like protein 1 (Homo sapiens) (UniProt P78549)
- COND: Compound Concentration 10.0 uM, Hit No
MEASURED METRIC: inhibition (%)

COMPOUND: O=C(Nc1ccc(Cl)cc1)N[C@@H](Cc1ccccc1)C(=O)N1CCCCC1
MEASURED METRIC: inhibition
UNIT TAG: %
RESULT NUMBER: 17.9

COMPOUND: Cc1cc(NC(=O)c2cccc(S(F)(F)(F)(F)F)c2)cc(-n2ccn3nc(-c4cccnc4)cc23)c1
MEASURED METRIC: inhibition
UNIT TAG: %
RESULT NUMBER: 7.92

COMPOUND: CN(c1ncccc1CNc1ccnc(-c2cc3cc(Cl)ccc3[nH]2)n1)S(C)(=O)=O
MEASURED METRIC: inhibition
UNIT TAG: %
RESULT NUMBER: -4.79

COMPOUND: CN(C(=O)Cc1ccc(Cl)c(Cl)c1)C(CN1CCCC1)c1cccc(OCC(=O)O)c1 (centres undefined)
MEASURED METRIC: inhibition
UNIT TAG: %
RESULT NUMBER: 13.7

COMPOUND: CNC(=O)COc1cc2cc(Nc3nc(N4C[C@H](C)C[C@H](C)C4)ncc3Cl)ccc2n(C)c1=O
MEASURED METRIC: inhibition
UNIT TAG: %
RESULT NUMBER: -7.86

COMPOUND: CN1CCc2cc(Cl)c(O)cc2[C@@H](c2ccccc2)C1
MEASURED METRIC: inhibition
UNIT TAG: %
RESULT NUMBER: 4.7

COMPOUND: O=C(NCCN1CCC(n2c(=O)[nH]c3cc(Cl)ccc32)CC1)c1ccc(F)cc1
MEASURED METRIC: inhibition
UNIT TAG: %
RESULT NUMBER: -1.74

COMPOUND: COc1cc(-c2cn([C@H]3CCc4ccccc4N(CC(F)(F)F)C3=O)nn2)ccc1-n1ccc(C)n1
MEASURED METRIC: inhibition
UNIT TAG: %
RESULT NUMBER: -9.83

COMPOUND: N#CN1CC[C@H](C(=O)Nc2nc3c(s2)CN(C(=O)CN=[N+]=[N-])CC3)C1
MEASURED METRIC: inhibition
UNIT TAG: %
RESULT NUMBER: 7.92

COMPOUND: CCOC(=O)N1CCC(CN(Cc2ccc(Cl)cc2)Cc2ccc([N+](=O)[O-])s2)C1 (centres undefined)
MEASURED METRIC: inhibition
UNIT TAG: %
RESULT NUMBER: 7.92

COMPOUND: Cc1ccccc1N1CCN(S(=O)(=O)C[C@]23CC[C@H](C[C@@H]2NC(=O)[C@@H](N)CCS(C)(=O)=O)C3(C)C)CC1
MEASURED METRIC: inhibition
UNIT TAG: %
RESULT NUMBER: 20.2

COMPOUND: CCOC(=O)c1ccc(C#Cc2ccc3c(c2)C(C)(C)CCS3)nc1
MEASURED METRIC: inhibition
UNIT TAG: %
RESULT NUMBER: 3.31

COMPOUND: O=C1NCCc2c(OCCCCN3CCCCC3)cccc21
MEASURED METRIC: inhibition
UNIT TAG: %
RESULT NUMBER: 23.7

COMPOUND: O=S1(=O)NCN(C2CC2)c2ccc(F)cc21
MEASURED METRIC: inhibition
UNIT TAG: %
RESULT NUMBER: 10.5

COMPOUND: Cc1ccc(C(C)(O)c2nc3ccccc3s2)c(C)c1 (centres undefined)
MEASURED METRIC: inhibition
UNIT TAG: %
RESULT NUMBER: 8.52

COMPOUND: Cc1cc(Cn2cnc3c2C[C@@H](C(=O)O)N(C(=O)C(c2ccccc2)c2ccccc2)C3)ccc1N(C)C
MEASURED METRIC: inhibition
UNIT TAG: %
RESULT NUMBER: -6.87

COMPOUND: Nc1ncnc2c1ncn2[C@@H]1O[C@H](COP(=O)(O)OP(=O)(O)O)[C@@H](O)[C@H]1O
MEASURED METRIC: inhibition
UNIT TAG: %
RESULT NUMBER: 11.3

COMPOUND: CN(C)C(=O)N1CC[C@H](NC2=Nc3cc(F)ccc3N(CC(F)F)c3ccc(Cl)cc32)C1
MEASURED METRIC: inhibition
UNIT TAG: %
RESULT NUMBER: -2.7

COMPOUND: CCCCN(CCCC)C(=O)CN1C[C@@H](c2ccc3c(c2)OCO3)[C@H](C(=O)O)[C@H]1c1ccc(OC)cc1
MEASURED METRIC: inhibition
UNIT TAG: %
RESULT NUMBER: 4.86

* * *

// reported inhibition for each item listed
- MEASURED ON: G/T mismatch-specific thymine DNA glycosylase (Homo sapiens) (UniProt Q13569)
- Sequence (Q13569 whole entry): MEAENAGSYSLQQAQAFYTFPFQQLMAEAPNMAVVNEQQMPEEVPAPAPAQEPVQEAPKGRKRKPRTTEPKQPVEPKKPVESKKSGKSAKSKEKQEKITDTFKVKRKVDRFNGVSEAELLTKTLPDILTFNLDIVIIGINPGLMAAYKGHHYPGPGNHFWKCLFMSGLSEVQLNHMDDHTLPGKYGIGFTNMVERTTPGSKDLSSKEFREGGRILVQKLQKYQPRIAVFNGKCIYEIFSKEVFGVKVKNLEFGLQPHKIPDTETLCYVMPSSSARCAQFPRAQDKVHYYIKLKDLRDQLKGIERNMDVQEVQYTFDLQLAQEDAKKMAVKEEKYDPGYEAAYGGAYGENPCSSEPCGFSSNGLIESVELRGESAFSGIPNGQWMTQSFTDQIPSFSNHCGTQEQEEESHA
- COND: Compound Concentration 10.0 uM, Hit No
- Description: Inhibition of TDG by quantifying inhibition of TDG-mediated cleavage and dissociation of quenched duplex DNA oligonucleotides, measured as fluorescence at 594 nm. To generate a functional strand incision and increase turn-over this assay is coupled to APE1.

MOLECULE: Cc1cc(OC2CCS(=O)(=O)CC2)cc(C)c1-c1cccc(COc2ccc(C(=O)O)c(F)c2)c1
UNIT TAG: %
inhibition: 100
//
MOLECULE: Cc1nccn1CC1CCc2c(c3ccccc3n2C)C1=O (configuration not stated)
UNIT TAG: %
inhibition: 0.598
//
MOLECULE: Cc1ccccc1Oc1cc(-n2c(=O)cc(C(F)(F)F)[nH]c2=O)c2ccccc2c1Cl
UNIT TAG: %
inhibition: 54.4
//
MOLECULE: CN1CCC(=C2c3ccccc3CC(=O)c3sccc32)CC1
UNIT TAG: %
inhibition: 2.08
//
MOLECULE: OC[C@H]1O[C@@H](n2cnc3c(NC4CCCC4)ncnc32)[C@H](O)[C@@H]1O
UNIT TAG: %
inhibition: -6.42
//
MOLECULE: CN(C)S(=O)(=O)c1ccc(NC(=S)N2CCC(C(O)(c3ccccc3)c3ccccc3)CC2)cc1
UNIT TAG: %
inhibition: -1.66
//
MOLECULE: FC(F)(F)c1ccc(Nc2ncnc3cc(-c4ncccc4C(F)(F)F)ccc23)cc1
UNIT TAG: %
inhibition: 25
//
MOLECULE: COc1ccc2c(c1)C(C(=O)N(Cc1ccc(N(C)C)cc1)c1ccc(C(C)C)cc1)CCC2 (configuration not stated)
UNIT TAG: %
inhibition: 15.3
//
MOLECULE: CCCCCNC(=O)N1CCC(CN(Cc2ccc(Cl)cc2)Cc2ccc([N+](=O)[O-])s2)C1 (configuration not stated)
UNIT TAG: %
inhibition: 98.5
//
MOLECULE: O=C(NCC12CC3CC(CC(C3)C1)C2)c1ccccc1Cl
UNIT TAG: %
inhibition: 10.4
//
MOLECULE: Cc1cc(SCc2sc(-c3ccc(C(F)(F)F)cc3)nc2C)ccc1OCC(=O)O
UNIT TAG: %
inhibition: 98.5
//
MOLECULE: O=C(O)c1ccccc1S(=O)(=O)NCCCCN1C(=O)c2cccc3cccc(c23)C1=O
UNIT TAG: %
inhibition: 16.1
//
MOLECULE: C[C@@H](NCCc1ccc(O)cc1)[C@@H](O)c1ccc(O)cc1 (relative stereo)
UNIT TAG: %
inhibition: 5
//
MOLECULE: CCCn1c(=O)c2[nH]c(-c3cnn(Cc4cccc(C(F)(F)F)c4)c3)nc2n(CC)c1=O
UNIT TAG: %
inhibition: -4.73
//
MOLECULE: Cc1nccc(COC(=O)N2C[C@@H]3[C@@H](CNC(=O)c4ccc5[nH]nnc5c4)[C@@H]3C2)n1
UNIT TAG: %
inhibition: 59.6
//
MOLECULE: C[C@@H](NCCCc1cccc(C(F)(F)F)c1)c1cccc2ccccc12
UNIT TAG: %
inhibition: -8.6
//
MOLECULE: C[C@H]1[C@H]2CC[C@H]3[C@@H]4CC=C5C[C@@H](N(C)C)CC[C@]5(C)[C@H]4CC[C@]23CN1C
UNIT TAG: %
inhibition: 5.99
//
MOLECULE: Brc1c(NC2=NCCN2)ccc2nccnc12
UNIT TAG: %
inhibition: 1.79
//
MOLECULE: CCOc1cc(N2CCC(O)CC2)ccc1Nc1ncc2c(n1)N(C1CCCC1)CCC(=O)N2C
UNIT TAG: %
inhibition: 36.7
//
MOLECULE: NCCc1ccc(O)c(O)c1
UNIT TAG: %
inhibition: 8.49
//
MOLECULE: O=C(NCC(=O)N1CC[C@H](N[C@H]2CC[C@@](O)(c3ccc(-c4ncccn4)cn3)CC2)C1)c1cccc(C(F)(F)F)c1
UNIT TAG: %
inhibition: 24.3
//
MOLECULE: O=c1ccc2c(OCCCCc3ccccc3)c3ccoc3cc2o1
UNIT TAG: %
inhibition: 5.01
//
MOLECULE: CNc1ncc2cc(-c3ccc(-c4ncccc4F)cc3Cl)c(=O)n(C[C@H]3OC[C@H](N)CO3)c2n1
UNIT TAG: %
inhibition: 48.4
//
MOLECULE: CSc1nc(NC2CCCC2)c([N+](=O)[O-])c(NC2CCCC2)n1
UNIT TAG: %
inhibition: 7.68
//
MOLECULE: CCOC(=O)N[C@@H]1CC[C@@H]2[C@@H](C1)C[C@H]1C(=O)O[C@H](C)[C@H]1[C@H]2/C=C/c1ccc(-c2cccc(F)c2)cn1
UNIT TAG: %
inhibition: 13.4
//
MOLECULE: NC(CCP(=O)(O)O)C(=O)O (racemic)
UNIT TAG: %
inhibition: 24.4
//
MOLECULE: CC(=O)NCCc1c(Cc2ccccc2)[nH]c2ccccc12
UNIT TAG: %
inhibition: 16.3

Attribution: ChEMBL document CHEMBL5665443
